# assay notes: Serum stability of miRNA mimic M30m3 alone or with cationic peptide/hybrid polymer in 5% human serum (TBE-urea gel)
# recorded conditions: M30m3 with polymer at N/P charge ratio 1, 37 C, calculated based on first order decay comparing two time points
No end group written: not given here. PEG1000 = N-terminal 1 kDa PEG spacer; PEG5000 = N-terminal 5 kDa PEG spacer; PEG2000 = PEG polymer of 2000 Da
Exam item: assign rule met to entries whose Serum Stability at N/P1 is below 20 h and rule not met to entries at or above 20 h. Note that a value of exactly 20 h receives rule not met.

Before answering, review these 3 worked examples.
substance="[PEG12]RdRdRdRdRdRdRdRdRdRdRdRd (RRRRRRRRRRRR; N-terminal PEG12; D-arginines; MOD_RES 1 N-terminal PEG12 spacer; MOD_RES 1..12 D-Arginine) [PEG12PolyArg12{d}]" assigned_class="rule not met"
substance="[PEG1000]-RRRRRRRRRRRR (PEG1000-RRRRRRRRRRRR) [PEG1000DaPolyArg12]" assigned_class="rule not met"
substance="[PEG2000]-RRRRRRRRRRRR (PEG2000-RRRRRRRRRRRR) [PEG2000DaPolyArg12]" assigned_class="rule met"

Just wondering, is Serum Stability at N/P1 of RTRRTRRTRRTRRTRRTR [PolyArg12Tinsert] below 20 h? rule met

Param item: [PEG12][PEG12]RRRRRRRRRRRR (N-terminal PEG24; MOD_RES 1 N-terminal PEG24 spacer) [PEP24PolyArg12] rule not met

Param item: TTTTTTRRRRRRRRRRRR [T6PolyArg12] rule not met

Param item: [PEG5000]-RRRRRRRRRRRR (PEG5000-RRRRRRRRRRRR) [PEG5000DaPolyArg12] rule met
